Quick list: MIC per entry.
System: Sal. enteritidis 1891
test_method_notes: minimum inhibition concentration (MIC)
Format: cell-based
condition_set: Salmonella enterica; Sal. enteritidis 1891; read-out: MIC
Number only, in mg/L; omit the unit.

Examples with answers:
| compound | MIC, mg/L |
| --- | --- |
| CCC1OC(=O)CC(O)C(C)C(OC2OC(C)CC(N(C)C)C2O)C(CC=O)CC(C)C(=O)C=CC(C)=CC1COC1CCCS1 (centres unmarked) | 1.56 |
| CCC1OC(=O)CC(O)C(C)C(OC2OC(C)CC(N(C)C)C2O)C(CC=O)CC(C)C(=O)C=CC(C)=CC1CO (centres unmarked) [Example 2, 4'-deoxy mycaminosyl tylonolide] | 0.78 |
| CC[C@H]1OC(=O)C[C@@H](O)[C@H](C)[C@@H](O[C@@H]2O[C@H](C)[C@@H](O[C@H]3C[C@@](C)(O)[C@@H](O)[C@H](C)O3)[C@H](N(C)C)[C@H]2O)[C@@H](CC=O)C[C@@H](C)C(=O)/C=C/C(C)=C/[C@@H]1CO[C@@H]1O[C@H](C)[C@@H](O)[C@@H](OC)[C@H]1OC | 25 |
| CCC1OC(=O)CC(O)C(C)C(OC2OC(C)CC(N(C)C)C2O)C(CC=O)CC(C)C(=O)C=CC(C)=CC1COC1CCCCS1 (centres unmarked) | 1.56 |
| CCC1OC(=O)CC(O)C(C)C(OC2OC(C)CC(N(C)C)C2O)C(CC=O)CC(C)C(=O)C=CC(C)=CC1CSc1ccccn1 (centres unmarked) | 0.78 |

query: Give reported MIC value for CCC(=O)OCC1C=C(C)C=CC(=O)C(C)CC(CC=O)C(OC2OC(C)CC(N(C)C)C2O)C(C)C(O)CC(=O)OC1CC (centres unmarked)
result: 0.78

query: Give reported MIC value for CCC1OC(=O)CC(O)C(C)C(OC2OC(C)CC(N(C)C)C2O)C(CC=O)CC(C)C(=O)C=CC(C)=CC1COCSC (centres unmarked)
result: 0.78

query: Give reported MIC value for CCC1OC(=O)CC(O)C(C)C(OC2OC(C)CC(N(C)C)C2O)C(CC=O)CC(C)C(=O)C=CC(C)=CC1CCl (centres unmarked)
result: 0.39
